What log(RBA) was measured for each of the following?
Species on record: Cavia porcellus
Experiment: Relative binding affinity to guinea pig progesterone receptor
Lab note: write the figure by itself, no unit.

Query: Look up and state reported log(RBA) for C[C@]1(O)CC[C@H]2[C@@H]3CCC4=CCCC[C@@H]4[C@H]3CC[C@@]21C
Result: 0.3

Query: Fill in reported log(RBA) for this entry: CC(=O)[C@H]1CC[C@H]2[C@@H]3CCC4=CC(=O)CC[C@]4(C)[C@H]3CC[C@]12C
Result: 2

Query: Please indicate log(RBA) recorded for C#C[C@]1(O)CC[C@H]2[C@@H]3CCC4=CCCC[C@@H]4[C@H]3CC[C@@]21C
Result: -0.52

Query: Assign log(RBA) to the following record: CC(=O)[C@H]1CC[C@H]2[C@@H]3CCC4=CC(=O)CC[C@@H]4[C@H]3CC[C@]12C
Result: 2.06
